Record type: MIC measurement. Applies to: Staph. aureus X1.1
// units = mg/L; emit number, no label

// below: answered compounds
>  <Compound>
COC(COC1OC(C)C(OC)C(OC)C1O)C1OC(Oc2ccc(C=C(C)C(=O)NC3C(CO)OC(n4cnc5c(N(C)C)ncnc54)C3O)cc2)C(O)C1O (stereo not shown)

>  <Readout Name>
MIC

>  <Reported Value>
16

$$$$
>  <Compound>
COC(COC1OC(C)C(OC)C(OC)C1O)=C1OC(Oc2ccc(C=C(C)C(=O)NC3C(CO)OC(n4cnc5c(N(C)C)ncnc54)C3O)cc2)C(O)C1O (stereo not shown) [Factor A201A, reference compound]

>  <Readout Name>
MIC

>  <Reported Value>
1

$$$$
>  <Compound>
COC(CO)=C1OC(Oc2ccc(C=C(C)C(=O)NC3C(CO)OC(n4cnc5c(N(C)C)ncnc54)C3O)cc2)C(O)C1O (stereo not shown)

>  <Readout Name>
MIC

>  <Reported Value>
32

$$$$

Lab note: next compound to report on.
Input: So what MIC did COC(COC1OC(C)C(OC)C(OC)C1O)=C1OC(Oc2ccc(C=C(C)C(=O)NC3C(CO)OC(n4cnc5c(N(C)C)ncnc54)C3O)cc2O)C(O)C1O (stereo not shown) get with Staph. aureus X1.1?
Output: 8

* * *

Test system: H. influ. HOLT
Readout Name: MIC (µg/mL)
// units = µg/mL; emit number, no label

>  <Compound>
COC(COC1OC(C)C(OC)C(OC)C1O)C1OC(Oc2ccc(C=C(C)C(=O)NC3C(CO)OC(n4cnc5c(N(C)C)ncnc54)C3O)cc2)C(O)C1O (stereo not shown)

>  <Reported Value>
32

$$$$
>  <Compound>
COC(CO)=C1OC(Oc2ccc(C=C(C)C(=O)NC3C(CO)OC(n4cnc5c(N(C)C)ncnc54)C3O)cc2)C(O)C1O (stereo not shown)

>  <Reported Value>
128

$$$$
>  <Compound>
COC(COC1OC(C)C(OC)C(OC)C1O)=C1OC(Oc2ccc(C=C(C)C(=O)NC3C(CO)OC(n4cnc5c(N(C)C)ncnc54)C3O)cc2)C(O)C1O (stereo not shown) [Factor A201A, reference compound]

>  <Reported Value>
8

$$$$

Lab note: next compound to report on.
Input: Consider the compound COC(COC1OC(C)C(OC)C(OC)C1O)=C1OC(Oc2ccc(C=C(C)C(=O)NC3C(CO)OC(n4cnc5c(N(C)C)ncnc54)C3O)cc2O)C(O)C1O (stereo not shown) and give its measured MIC.
Output: 132

* * *

Test: pKa
Type: physicochemical
Conditions: 66% dmf-h2o
Readout Name: pKa
Form rule: numeric answer, no unit written next to it.

Input: Consider the molecule COC(COC1OC(C)C(OC)C(OC)C1O)=C1OC(Oc2ccc(C=C(C)C(=O)NC3C(CO)OC(n4cnc5c(N(C)C)ncnc54)C3O)cc2O)C(O)C1O (stereo not shown) [Factor C] and give its measured pKa.
Output: 11.4

* * *

The molecules listed here are annotated with their MIC.
Tested on: Staph. aureus S13E
Experiment: MIC by standard agar-dilution test, Staph. aureus S13E
Type: cell-based
Conditions: Staphylococcus aureus
Source text: The minimal inhibitory concentrations (MIC's) at which A201C, A201D, and A201E inhibit selected Gram positive bacteria, as determined by standard agar-dilution tests, are summarized in Table I: […]
// units = µg/mL; emit number, no label

// below: answered molecules
>  <Molecule>
COC(COC1OC(C)C(OC)C(OC)C1O)=C1OC(Oc2ccc(C=C(C)C(=O)NC3C(CO)OC(n4cnc5c(N(C)C)ncnc54)C3O)cc2)C(O)C1O (stereo not shown) [Factor A201A, reference compound]

>  <Reported Value>
1

$$$$
>  <Molecule>
COC(CO)=C1OC(Oc2ccc(C=C(C)C(=O)NC3C(CO)OC(n4cnc5c(N(C)C)ncnc54)C3O)cc2)C(O)C1O (stereo not shown)

>  <Reported Value>
32

$$$$
>  <Molecule>
COC(COC1OC(C)C(OC)C(OC)C1O)=C1OC(Oc2ccc(C=C(C)C(=O)NC3C(CO)OC(n4cnc5c(N(C)C)ncnc54)C3O)cc2O)C(O)C1O (stereo not shown)

>  <Reported Value>
8

$$$$

Input: Consider the molecule COC(COC1OC(C)C(OC)C(OC)C1O)C1OC(Oc2ccc(C=C(C)C(=O)NC3C(CO)OC(n4cnc5c(N(C)C)ncnc54)C3O)cc2)C(O)C1O (stereo not shown) and give its measured MIC.
Output: 16
